Where do these numbers come from? They come from PubChem BioAssay (NCI).

test system: SK-OV-3 ovarian; assay: NCI tumour cell line growth inhibition, 48 h; in the data active = GI50 below about 0.43 µM; inactive = the rest
Please answer using one outcome listed in active, inactive

Problem: Assay outcome for CC(=O)c1c(C(F)(F)F)n([O-])c2ccc(C)cc2[n+]1=O : what was it?
Solution: inactive

Problem: Assay outcome for COc1ccc(/C=N/NC(=O)Cn2c(-c3ccc(S(C)(=O)=O)cc3)nc3cc(Cl)ccc32)cc1 : what was it?
Solution: inactive

Problem: Assay outcome for O=[N+]([O-])c1cc(S(=O)(=O)Oc2ccccc2)ccc1Cl : what was it?
Solution: inactive

Problem: Assay outcome for O=C(Nc1cccc(Nc2ncc(Br)c(NCCc3cnc[nH]3)n2)c1)N1CCCC1 : what was it?
Solution: inactive

Problem: Assay outcome for CC1(C)N=C(N)N=C(N)N1c1ccc(CCCCc2ccc(S(=O)(=O)F)cc2)c(Cl)c1 : what was it?
Solution: inactive

Problem: Assay outcome for BrCc1ccc(CBr)cc1 : what was it?
Solution: inactive

Problem: Assay outcome for CC(C)=CCC/C(C)=C/CC/C(C)=C/CC/C=C(\C)CC/C=C(\C)CCC(=O)Nc1ccn(C2OC(CO)C(O)C2(F)F)c(=O)n1 (stereo not drawn) : what was it?
Solution: active

Problem: Assay outcome for COc1cc2c(c(OC)c1OC)-c1ccc(SC)c(=O)cc1[C@@H](NC1OC(CO)C(O)C(O)C1O)CC2 (stereo partly drawn) : what was it?
Solution: active

----------
test system: HCT-116 colon
Please answer using one outcome listed in yes (1) (active), no (0) (inactive)

Here are 4 compounds together with their reported answers.
compound: N#CN1CC[C@H](C(=O)Nc2ncc(-c3ccncc3)s2)C1
answer label: yes (1)
//
compound: CC(C)(C)CN1CCn2c(nc3c(N)nccc32)S1
answer label: no (0)
//
compound: CCCCn1c(=O)c2c(nc3n2CCCN3CCc2ccc(OCC(=O)NCCN(CC)CC)cc2)n(CCCC)c1=O
answer label: no (0)
//
compound: C/C1=C\[C@@H](O)C(=O)/C=C/C=C\c2csc(n2)[C@@H](C)NC(=O)C[C@@]2(CC1)S(=O)SC(=O)[C@]2(C)O (stereo not given in full)
answer label: yes (1)

Problem: Assay outcome for COc1cc(/C=C/[N+](=O)[O-])cc(Br)c1OC : what was it?
Solution: no (0)

Problem: Assay outcome for Cc1cccc(NC(=O)c2sc3nc4c(cc3c2N)CN(Cc2ccccc2)CC4)c1C : what was it?
Solution: yes (1)

Problem: Assay outcome for CC1(C)N=C(N)N=C(N)N1c1ccc(CCCCc2ccc(S(=O)(=O)F)cc2)c(Cl)c1 : what was it?
Solution: yes (1)

Problem: Assay outcome for CC(C)(C)c1ccc(C(=O)Nc2sc3c(c2C(N)=O)CCC(=O)C3)cc1 : what was it?
Solution: yes (1)

Problem: Assay outcome for Nc1ccc(-c2nc3ccccc3[nH]2)c2ccccc12 : what was it?
Solution: no (0)

Problem: Assay outcome for CCCCCn1sc(=O)n(Cc2ccc(CNC(=O)OCc3ccc4cccc(O)c4n3)cc2)c1=O : what was it?
Solution: yes (1)

----------
system: NCI-H460 lung; assay: NCI tumour cell line growth inhibition, 48 h
assay metric: TGI

Examples from the recorded data:
compound: O=C(N/N=C/c1cc(Cl)cc(Cl)c1O)c1ccccc1O
system name: NCI-H460 lung
assay metric: TGI
recorded value: 18.8 µM
--
compound: COC(=O)C1=C(C)N2[C@H](C(=O)O)CO[C@@]2(C)[C@H](C(=O)OC)[C@H]1c1cccc([N+](=O)[O-])c1
system name: NCI-H460 lung
assay metric: TGI
recorded value: > 100 µM
--
compound: [N-]=[N+]=C1C(=O)C2CC3CC(C2)CC1C3
system name: NCI-H460 lung
assay metric: TGI
recorded value: > 100 µM
--
compound: CC1(C)C2CCC13CS(=O)(=O)N1O[C@]13C(=O)O2 (stereo partly specified)
system name: NCI-H460 lung
assay metric: TGI
recorded value: > 100 µM
--
compound: Nc1ccc(CCN2CCN(CCCc3ccccc3)CC2)cc1
system name: NCI-H460 lung
assay metric: TGI
recorded value: > 100 µM

Problem: I have this compound here, COc1ccc2cc(-c3c(-c4ccncc4)nc(-c4ccc(S(C)=O)cc4)n3C)ccc2c1 (stereo unspecified) , and I need its recorded TGI.
Solution: > 25 µM

Problem: I have this compound here, Cc1nc(-c2ccc(N=Cc3ccc(N(CCOS(C)(=O)=O)CCOS(C)(=O)=O)cc3C)cc2)cs1 , and I need its recorded TGI.
Solution: > 100 µM

Problem: I have this compound here, O=C(NC1CCCC1=O)c1ccccc1 (stereo unspecified) , and I need its recorded TGI.
Solution: > 100 µM

Problem: I have this compound here, CC(=O)c1c(C(F)(F)F)n([O-])c2ccc(C)cc2[n+]1=O , and I need its recorded TGI.
Solution: > 39.8 µM

Problem: I have this compound here, CC1OC(O[C@H]2/C=C/C=C/C=C/C=C/C=C/C=C/C=C/[C@H](C)[C@@H](O)[C@@H](C)[C@H](C)OC(=O)CC(O)CC(O)CCC(O)C(O)CC(O)C[C@]3(O)C[C@H](O)C(C(=O)O)C(C2)O3)C(O)[C@H](N)C1O (stereo partly specified) , and I need its recorded TGI.
Solution: 4.84 µM

----------
system: IGROV1 ovarian; test: NCI tumour cell line growth inhibition, 48 h; in the data active means GI50 below about 0.43 µM; inactive means the rest
Please answer using one outcome listed in active, inactive

Here are 2 molecules together with their reported answers.
molecule: O=C(Oc1cccnc1)c1ccsc1Nc1ccnc(C(F)(F)F)c1
system name: IGROV1 ovarian
answer label: inactive
--
molecule: O=C(Nc1cccc(Nc2ncc(Br)c(NCCc3cnc[nH]3)n2)c1)N1CCCC1
system name: IGROV1 ovarian
answer label: inactive

Problem: Assay outcome for CN1CCN(CC(O)COc2c(Br)c(Br)c(Br)c3c2OC(C)(C)C3)CC1 (stereo not given) : what was it?
Solution: inactive

Problem: Assay outcome for COc1ccc(C(=O)N2c3ccccc3Sc3ccccc32)c(OC)c1 : what was it?
Solution: inactive

Problem: Assay outcome for COc1ccc2c(c1)OC1=C(C(=O)OC1)C2c1cc(OC)c2c(c1)OCO2 (stereo not given) : what was it?
Solution: active

Problem: Assay outcome for COc1cc2c(c(OC)c1OC)-c1ccc(SC)c(=O)cc1[C@@H](NC1OC(CO)C(O)C(O)C1O)CC2 (stereo not given in full) : what was it?
Solution: active

Problem: Assay outcome for CC(C)(C)CN1CCn2c(nc3c(N)nccc32)S1 : what was it?
Solution: inactive

----------
test system: MALME-3M melanoma; assay: NCI tumour cell line growth inhibition, 48 h
Documented TGI across a set of compounds
Numeric only. Scale: µM

compound: CC1OC(O[C@H]2/C=C/C=C/C=C/C=C/C=C/C=C/C=C/[C@H](C)[C@@H](O)[C@@H](C)[C@H](C)OC(=O)CC(O)CC(O)CCC(O)C(O)CC(O)C[C@]3(O)C[C@H](O)C(C(=O)O)C(C2)O3)C(O)[C@H](N)C1O (stereo partly drawn)
value units: µM
TGI: 3.68

Consider now this further compound.
Problem: I have this compound here, Cc1cc(O)c(C(C)C)cc1C1(c2cc(C(C)C)c(O)cc2C)OC(=O)c2ccccc21 , and I need its recorded TGI.
Solution: 5.21

----------
tested on: T-47D breast; experiment: NCI tumour cell line growth inhibition, 48 h
assay metric: GI50

compound: O=C1NC(=O)C(c2cccc(Cl)c2)=C1Nc1ccc(O)c(Cl)c1
recorded value: 7.98 µM
--
compound: CCN1C(=O)N(CC)C2C1NN=c1s/c(=C\c3ccccc3Br)c(=O)n12 (stereo not drawn)
recorded value: 13.5 µM
--
compound: CC1(C)N=C(N)N=C(N)N1c1ccc(CCCCc2ccc(S(=O)(=O)F)cc2)c(Cl)c1
recorded value: 2.05 µM
--
compound: N#CN1CC[C@H](C(=O)Nc2ncc(-c3ccncc3)s2)C1
recorded value: < 0.0177 µM
--
compound: CN1CCN(Cc2ccc(NC(=O)c3[nH]ncc3Nc3ncnc4sc5c(c34)CCCC5)cc2)CC1
recorded value: 0.457 µM
--
compound: C[C@@H]1O[C@@H](O[C@H]2CC[C@@]3(C)[C@H](CCC4[C@@H]3C(O)C[C@]3(C)[C@@H](c5ccc(=O)oc5)CC[C@]43O)C2)[C@H](O)[C@H](O)[C@H]1O (stereo partly drawn)
recorded value: < 0.00325 µM
--
compound: COC1O[C@@H]2C[C@H]3C(C)(C)CCC[C@]3(C)C3=CCCC1[C@@]32C (stereo partly drawn)
recorded value: > 100 µM
--
compound: CCn1c2ccccc2c2cc(/C=C(/C#N)C(N)=O)ccc21
recorded value: 3.33 µM

Problem: I have this compound here, BrCc1ccc(CBr)cc1 , and I need its recorded GI50.
Solution: 12.7 µM

Problem: I have this compound here, CN(CCCCCl)P(=O)(OCCS(=O)(=O)CC(NC(=O)CCC(N)C(=O)O)C(=O)NC(C(=O)O)c1ccccc1)OCC1OC(n2cc(F)c(=O)[nH]c2=O)CC1O (stereo not drawn) , and I need its recorded GI50.
Solution: 5.65 µM

Problem: I have this compound here, CCN1C(=O)N(CC)C2C1NN=c1s/c(=C3\C(=O)N(CCc4ccccc4)c4ccccc43)c(=O)n12 (stereo not drawn) , and I need its recorded GI50.
Solution: 1.19 µM

Problem: I have this compound here, C[CH2][Pb]([CH2]C)([CH2]C)[O]C(=O)c1ccc2ccccc2n1 , and I need its recorded GI50.
Solution: > 10 µM

Problem: I have this compound here, CN1CCC(n2cnc(-c3ccc(F)cc3)c2-c2ccnc(N)n2)CC1 , and I need its recorded GI50.
Solution: 16 µM

Problem: I have this compound here, COc1ccc2cc(-c3c(-c4ccncc4)nc(-c4ccc(S(C)=O)cc4)n3C)ccc2c1 (stereo not drawn) , and I need its recorded GI50.
Solution: 7.92 µM

Problem: I have this compound here, COc1ccc(/C=N/NC(=O)Cn2c(-c3ccc(S(C)(=O)=O)cc3)nc3cc(Cl)ccc32)cc1 , and I need its recorded GI50.
Solution: 3.22 µM

Problem: I have this compound here, CCN(Cc1ccc(Cl)s1)c1ccc(CO)c(Cl)c1 , and I need its recorded GI50.
Solution: 0.121 µM

Problem: I have this compound here, COc1cc(/C=C/[N+](=O)[O-])cc(Br)c1OC , and I need its recorded GI50.
Solution: 2.57 µM

Problem: I have this compound here, C#CCOc1cccc(Nc2ncnc3c(NC(=O)CCl)cccc23)c1 , and I need its recorded GI50.
Solution: 15.7 µM
